# Test system: MS2 coat protein
# RUN DESCRIPTION: apparent KD of MS2 coat protein; higher = weaker reporter binding
# SETUP CONDITIONS: Eterna round: R107; input ligand: none
Criterion: apparent KD of MS2 coat protein meeting or surpassing 0.02 µM. Met: satisfied. Not met: not satisfied.

Check out these entries, answers already filled in.
RESIDUE SEQUENCE	ASSIGNED CATEGORY
CCGCACAUGAGGAUCACCCAUGUCAGGGAUACCAGCCCAGACAUGGGCCCUUGGCAGCUUUGUAGCUGACGAAAGUCAGCAGCGG [Omei Theo A SS A v2]	satisfied
AGCGGCUCGAAAGAGUCGCACUCAUGUGAAGGAGCGCCCGUAAGGGCAGGUAGGUCGCACAUGAGGAUCACCCAUGUACCUUCUA [MAT - Exclusion Arginine A - Mod of Eli - D20]	satisfied
AUGCGGUGCGGAAGGAGCGAGUUUGCCUAUUUACAUGAGGAUCACCCAUGUCCUAAUGGGACUCAGGUAGGUCGCCGUUGUCGCA [Same State Arginine B GF 29]	satisfied

Problem: Does the sequence UCGCCCAGGUAGGCUUAAUGGGAUAUGGAAGGAGCGCUGAUGCCAGCAGGUAGGUCGCCAACGGACAUGAGGAUCACCCAUGUAC [Same State - Arginine A (Freestyle 4)] have recorded apparent KD of MS2 coat protein that is 0.02 µM or more?
Result: not satisfied

Problem: Check if apparent KD of MS2 coat protein >= 0.02 µM (inclusive). Item: UGGGUUGGACCAGGAAAUGGUCUGACUCACCGAGGACCGGUACGGCCGCCACUCGUAGGUACAUGAGGAUCACCCAUGUCGGUGG [#1 Same State - Tryptophan A Attempt #11 (HarryS)]
Result: satisfied

* * *

# System: K4 kissing-loop RNA reporter;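 further: bound reporter read as fluorescence of individual clusters on recovered sequencing chips by microscopy, with normalized cluster intensities fitted with a binding model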
# RUN DESCRIPTION: apparent KD of K4 kissing-loop reporter; higher = weaker reporter binding
# SETUP CONDITIONS: Eterna round: R107; input ligand: arginine 13.2 mM
Threshold check on apparent KD of K4 kissing-loop reporter: at or above 200 nM gives TRUE, strictly below gives FALSE.

RESIDUE SEQUENCE	ASSIGNED CATEGORY
AAAAUAAAUAGCAGUCAUGGAGUGAUGUUCCGAGGACCGGUACGGCCGCCACUCGACCAUCAUAAGAUGGAUGGCGAAGACUGCA [#SwitchBubble 24 #K4Early]	TRUE

Problem: Quick check, apparent KD of K4 kissing-loop reporter >= 200 nM? GCUAUGGUAGGAAGGAGCGCUUACUCAUUAAUAAGAGUGAUGUUCGAUAAUGAGUAUUUAUAGCAGGUAGGUCGCCUACUAUAGC [Arginine B K4 3]
Result: TRUE

Problem: Could you tell me if the measured apparent KD of K4 kissing-loop reporter of GUAGGAUGAGGAGGAGGAUGAAUUACUGAAGGAGCGCAAAGAAAUGCAGGUAGGUCGCGGUAAAGAAGUAUAGUGAUGUUAUAUA [SSArgA.E] reaches 200 nM or more?
Result: TRUE

Problem: Confirm if apparent KD of K4 kissing-loop reporter reported for the sequence AUUUUUUUGUCAGGAUAUUAGUGUGGGUUUGGUUUGUUAGUGAUGUUGAUAUUUGUUUUAUGUAUUUAAGAAGGGAUUUAGCGGU [zzdxemullin] is 200 nM or above.
Result: TRUE

Problem: Quick check: does GCCGUAGAUUGAAGGAGCGCCAUCUUACCAAGAGUGAUGUUCUUUGGUACCAUGUACAGCUGGCAGGUAGGUCGCAAUCUACGGC have apparent KD of K4 kissing-loop reporter greater than or equal to 200 nM?
Result: FALSE

Problem: Dear colleague, could you confirm whether UGGAGUUGACGAAAAGUCAACUCCUGAGAAGGAGCGGACGAAAGUCCAGGUAGGUCGCUCACUACCAGUGAUGUUGGUACUUAAA [#OpenEnded 4] has apparent KD of K4 kissing-loop reporter at or above 200 nM?
Result: TRUE

Problem: Please indicate if the recorded apparent KD of K4 kissing-loop reporter for GAGAACUCUUACGAUACCAGCCGGAGUGAUGUUCCGUGCUUGGACGUAGUAACCCGCACCGGCCCUUGGCAGCGUGGAUCCUAUG [Biorar] meets or exceeds 200 nM.
Result: FALSE

Problem: I'd appreciate it if you could say whether UAACGCUGACAGCAACAAUUCGGGCCUGAUACCAGCAAUUUUUCAUGCCCUUGGCAGCAGAGUGAUGUUUUCUGUCUAUUUAGUC [theeternabot_exclusion_KL_Theo_A_23] has apparent KD of K4 kissing-loop reporter at least equal to 200 nM.
Result: TRUE

Problem: Answer whether apparent KD of K4 kissing-loop reporter of UCGCCGCUCACGGCCGCCACUAAGCCCAAGACCAGAGAGUGAUGUUCUAUCCACGUUUCAAUUUUUAGGACCGGGUGAAAGGCGA [theeternabot_sameState_KL_Trp_B_14] is greater than or equal to 200 nM.
Result: TRUE

Problem: Decide: is the reported value of apparent KD of K4 kissing-loop reporter for GGAUAGGACUGAGGAUAUGGGCUAGGCAAGAAUAACUUGUCUAGCAAAUCCAUGAGGAGUGAUGUUCCAGAAGGCAGUCCUAUCG [FmnBX 1 U10+A76] equal to or greater than 200 nM?
Result: FALSE

Problem: Check this sequence for apparent KD of K4 kissing-loop reporter at or above 200 nM: AUGACUCAAUAGUGAGUGAUGUUCACUGGACGAGGACCGGUACGGCCGCCACUCGAGAGUGGUGGACACUGUGUCACUGAGUCAU [Tryp A Ex t1]
Result: FALSE
